Each item that follows carries a reported pIC50.
- target-entity: Neuropeptide Y receptor type 1 (Homo sapiens)
- Sequence (P25929 whole entry): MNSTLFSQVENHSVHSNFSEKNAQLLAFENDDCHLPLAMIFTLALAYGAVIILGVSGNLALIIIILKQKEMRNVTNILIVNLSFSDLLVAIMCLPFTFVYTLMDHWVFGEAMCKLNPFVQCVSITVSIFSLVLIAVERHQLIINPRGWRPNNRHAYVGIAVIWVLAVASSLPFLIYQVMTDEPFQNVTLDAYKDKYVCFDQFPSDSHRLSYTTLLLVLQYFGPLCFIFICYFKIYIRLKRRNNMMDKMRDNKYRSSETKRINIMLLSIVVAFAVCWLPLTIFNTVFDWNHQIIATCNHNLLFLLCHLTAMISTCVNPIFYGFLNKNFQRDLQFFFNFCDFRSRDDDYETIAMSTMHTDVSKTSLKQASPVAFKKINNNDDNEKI
- protocol-summary: Displacement of [125I]PYY from NPY1 receptor in human SK-N-MC cells after 1 hr by microbeta scintillation counting analysis
# reply with the number alone; pIC50 is -log10 of concentration in mol/L

Qu. Can you look up pIC50 on Neuropeptide Y receptor type 1 (Homo sapiens) for CCOc1cccc(C2(N3CCN(c4cccnn4)CC3)C3CC(C)CC32)c1 (centres undefined) ?
Ans. 5.36

Qu. Can you look up pIC50 on Neuropeptide Y receptor type 1 (Homo sapiens) for CCOc1cccc(C2(N3CCN(c4ncccn4)CC3)C3CC(C)CC32)c1 (centres undefined) ?
Ans. 7.27

More entries:
Qu. Can you look up pIC50 on Neuropeptide Y receptor type 1 (Homo sapiens) for CCOc1cccc(C2(N3CCN(c4ncncn4)CC3)C3CC(C)CC32)c1 (centres undefined) ?
Ans. 5.37

Every entry's value here was drawn from ChEMBL document CHEMBL2396603.
